ASSAY SYSTEM: cAMP and cAMP-inhibited cGMP 3',5'-cyclic phosphodiesterase 10A (Homo sapiens, UniProt Q9Y233)
ASSAY OVERVIEW: PDE10A assay
QUANTITY NAME: IC50 (µM)

(A) CN(C(=O)c1cnn(C)c1C(=O)N[C@@H]1CCn2c(nc(-c3ccccc3)c2Cl)C1)C1CC1 [Roche-Dataset for PDE10A, Compound 110]
(B) COCCOc1cc(Cl)c(C)n2nc(CCc3nc(N4CCCC4)nn3C)nc12 [Roche-Dataset for PDE10A, Compound 146]
(C) Cn1ncc(C(=O)N2CCC2)c1C(=O)Nc1ccn(-c2ccccc2F)n1 [Roche-Dataset for PDE10A, Compound 1043]
(D) Cn1ncc(C(=O)N2CCC2)c1C(=O)Nc1ccn2nc(-c3ccccc3OCF)nc2c1 [Roche-Dataset for PDE10A, Compound 71]
# rank_down: sort by IC50, max first Order the labels as requested and list them. C, A, D, B
(C: 0.396 µM, A: 0.052 µM, D: 0.00173 µM, B: 0.00017 µM)

----------
Here's a batch of molecules along with measured pIC50 for cAMP and cAMP-inhibited cGMP 3',5'-cyclic phosphodiesterase 10A (Homo sapiens).
pIC50: −log10 of the molar value.
QUANTITY NAME: pIC50

[[record]]
molecule = "O=C(Nc1ccn2nc(-c3ccccc3)nc2c1)c1cc(Cl)nc(N2CCCCC2)c1 [Roche-Dataset for PDE10A, Compound 86]"
endpoint_value = 7.28

[[record]]
molecule = "COc1ccccc1-c1nc2n(c1Cl)CC[C@@H](NC(=O)c1c(C(=O)N3CCC3)cnn1C)C2 [Roche-Dataset for PDE10A, Compound 362]"
endpoint_value = 6.73


(P) Cn1ncc(C(N)=O)c1C(=O)Nc1ccn2nc(-c3ccccc3)nc2c1 [Roche-Dataset for PDE10A, Compound 401]
(Q) O=C(Nc1cnoc1-c1ccccc1)c1nc(C2CC2)ccc1Nc1cncnc1 [Roche-Dataset for PDE10A, Compound 607]
(R) Cn1nc(-c2ccccn2)cc1NC(=O)c1c(C(=O)N2CCC2)cnn1C [Roche-Dataset for PDE10A, Compound 535]
(S) CNC(=O)c1cc2[nH]c(-c3ccccc3)nc2cc1NC(=O)c1cc(C(C)(C)C)nn1C [Roche-Dataset for PDE10A, Compound 650]
Let's sort these by pIC50, smallest first. Go ahead? Order the labels as requested and list them. S, P, R, Q

----------
pIC50: −log10 of the molar value.
Here's a batch of compounds along with measured pIC50 for cAMP and cAMP-inhibited cGMP 3',5'-cyclic phosphodiesterase 10A (Homo sapiens).
QUANTITY NAME: pIC50

Sample answers from the record:
[[record]]
compound = "O=C(O)c1cccnc1C(=O)Nc1ccn2nc(-c3ccccc3)nc2c1 [Roche-Dataset for PDE10A, Compound 381]"
assay_system = "cAMP and cAMP-inhibited cGMP 3',5'-cyclic phosphodiesterase 10A (Homo sapiens)"
endpoint_value = 6.19

[[record]]
compound = "CC(C)(C)CCNC(=O)c1nc(C2CC2)cnc1Nc1cncnc1 [Roche-Dataset for PDE10A, Compound 1022]"
assay_system = "cAMP and cAMP-inhibited cGMP 3',5'-cyclic phosphodiesterase 10A (Homo sapiens)"
endpoint_value = 5.63

[[record]]
compound = "Cn1ncc(C(=O)NC2COC2)c1C(=O)N[C@@H]1CCn2cc(-c3ccccc3)nc2C1 [Roche-Dataset for PDE10A, Compound 302]"
assay_system = "cAMP and cAMP-inhibited cGMP 3',5'-cyclic phosphodiesterase 10A (Homo sapiens)"
endpoint_value = 6.74

[[record]]
compound = "Cc1nn2ccc(CCc3nc(N4CCCC4)nn3C)nc2c1C [US9617271, 53]"
assay_system = "cAMP and cAMP-inhibited cGMP 3',5'-cyclic phosphodiesterase 10A (Homo sapiens)"
endpoint_value = 7.77

[[record]]
compound = "Cn1nc(N2CCCC2)nc1/C=C/c1nc(N2CCCC2)nn1C [Roche-Dataset for PDE10A, Compound 550]"
assay_system = "cAMP and cAMP-inhibited cGMP 3',5'-cyclic phosphodiesterase 10A (Homo sapiens)"
endpoint_value = 6.73


(1) O=C(N[C@@H]1C[C@H]1c1ccccc1)c1nc(C2CC2)cnc1Nc1cncnc1 [Roche-Dataset for PDE10A, Compound 749]
(2) Cc1nc(C)n2nc(/C=C/c3nc(N4CCCC4)nn3C)nc2c1C [Roche-Dataset for PDE10A, Compound 293]
Of 1 and 2 , whose reported pIC50 is the larger number? // return label of chosen record 2
(2: 8.04, 1: 6.15)

----------
ASSAY SYSTEM: cAMP and cAMP-inhibited cGMP 3',5'-cyclic phosphodiesterase 10A (Homo sapiens, UniProt Q9Y233)
QUANTITY NAME: IC50 (µM)

[[record]]
compound = "Cn1ncc(C(=O)N2CC(F)C2)c1C(=O)Nc1ccn2nc(-c3ccccc3)nc2c1 [Roche-Dataset for PDE10A, Compound 165]"
quantity_name = "IC50"
quantity_unit = "µM"
endpoint_value = 0.00036

[[record]]
compound = "O=C(NCCNS(=O)(=O)c1ccccc1)c1nc(C2CC2)cnc1Nc1cncnc1 [Roche-Dataset for PDE10A, Compound 839]"
quantity_name = "IC50"
quantity_unit = "µM"
endpoint_value = 0.403


(1) COCc1cnn(C)c1C(=O)Nc1ccn2nc(-c3ccccc3)nc2c1 [Roche-Dataset for PDE10A, Compound 239]
(2) Cc1c(Cl)ccc2nc(/C=C/c3nc(N4CCCC4)n(C)n3)nn12 [Roche-Dataset for PDE10A, Compound 393]
(3) Cn1nc(-c2ccccn2)cc1NC(=O)c1c(I)cc[nH]c1=O [Roche-Dataset for PDE10A, Compound 774]
Reorder: IC50, max to min. Order the labels as requested and list them. 3, 1, 2

----------
ASSAY SYSTEM: cAMP and cAMP-inhibited cGMP 3',5'-cyclic phosphodiesterase 10A (Homo sapiens, UniProt Q9Y233)
pIC50: −log10 of the molar value.
QUANTITY NAME: pIC50

Sample answers from the record:
[[record]]
molecule = "CN(C)C(=O)c1cnn(C)c1C(=O)Nc1ccc2[nH]c(-c3ccccc3)nc2c1 [Roche-Dataset for PDE10A, Compound 195]"
endpoint_value = 9.44

[[record]]
molecule = "Cc1ncc(C)n2nc(CCc3nc(N4CCNCC4)nn3C)nc12 [Roche-Dataset for PDE10A, Compound 515]"
endpoint_value = 6.12

[[record]]
molecule = "CC(C)c1ncc(Nc2ccon2)c(C(=O)N[C@@H]2CCN(c3ccc(Cl)cn3)C2)n1 [Roche-Dataset for PDE10A, Compound 212]"
endpoint_value = 6.63


(I) Cc1cnc(C)n2nc(/C=C/c3nc(N4CCCC4)nn3C)nc12 [Roche-Dataset for PDE10A, Compound 474]
(II) Cn1ncc(C(=O)O)c1C(=O)Nc1ccn2nc(-c3ccnc(F)c3)nc2c1 [Roche-Dataset for PDE10A, Compound 394]
Of I and II , whose reported pIC50 is the larger number? // return label of chosen record I

----------
Here's a batch of compounds along with measured pIC50 for UniProt Q9Y233.
pIC50: −log10 of the molar value.
QUANTITY NAME: pIC50

[[record]]
compound = "CNC(=O)c1cccc(NC(=O)c2nc(C3CC3)cnc2Nc2cncnc2)n1 [Roche-Dataset for PDE10A, Compound 1026]"
assay_system = "UniProt Q9Y233"
endpoint_value = 6.77


(I) Cn1cc(-c2ccccc2)nc1CCc1nc2cccc(Cl)c2c(=O)[nH]1 [Roche-Dataset for PDE10A, Compound 52]
(II) CSc1ncc(Nc2cncnc2)c(C(=O)Nc2cc(-c3ccccn3)nn2C)n1 [Roche-Dataset for PDE10A, Compound 519]
(III) O=C(Nc1ccn(-c2ccncc2)n1)c1nc(C2CC2)ccc1Nc1cncnc1
(IV) COC(=O)c1cc(Cl)c(C)n2nc(CCc3nc(N4CCCC4)nn3C)nc12 [Roche-Dataset for PDE10A, Compound 325]
(V) O=C(Nc1ccn(C2CCCC2)n1)c1nc(C2CC2)ccc1Nc1cncnc1 [Roche-Dataset for PDE10A, Compound 580]
Let's sort these by pIC50, smallest first. Go ahead? Order the labels as requested and list them. II, IV, I, III, V
(II: 5.87, IV: 6.36, I: 6.91, III: 8.01, V: 8.25)

----------
ASSAY SYSTEM: cAMP and cAMP-inhibited cGMP 3',5'-cyclic phosphodiesterase 10A (Homo sapiens, UniProt Q9Y233)
QUANTITY NAME: IC50 (nM)

(A) CCN(C)C(=O)c1cnn(C)c1C(=O)Nc1ccn2cc(-c3cccc(OCCO)c3)nc2n1 [Roche-Dataset for PDE10A, Compound 39]
(B) CNC(=O)c1cc2[nH]c(-c3ccccc3)nc2cc1NC(=O)c1cc(C)n(C(C)(C)C)n1 [Roche-Dataset for PDE10A, Compound 713]
(C) O=C1c2ccccc2C(=O)N1CCc1nc(-c2cccnc2)no1 [Roche-Dataset for PDE10A, Compound 579]
# rank_down: sort by IC50, max first Order the labels as requested and list them. C, B, A
(C: 16400 nM, B: 76 nM, A: 8.81 nM)

Every entry's value here was drawn from BindingDB's records for doi:10.1007/s10822-022-00478-x.
